- Test system: H460
- Assay: cells
- Particulars: Homo sapiens, NCI-H460, read-out: IC50 ARN22089
Assay Readout: IC50 (µM)
Number in µM, nothing else.

Quickly give me recorded IC50 for CN(C)c1cccc(Nc2cc(-c3ccccc3)nc(C3CCNCC3)n2)c1 [ARN22089]
8.5

----------
- Tested on: AsPC-1
- Assay: cells
- Particulars: Homo sapiens, ASPC1, read-out: IC50 ARN22089
Assay Readout: pIC50
# pIC50 = -log10(concentration in molar units)

Quickly give me recorded pIC50 for CN(C)c1cccc(Nc2cc(-c3ccccc3)nc(C3CCNCC3)n2)c1 [ARN22089]
5.00

----------
- Tested on: KARPAS 299
- Assay: cells
- Particulars: Homo sapiens, KARPAS-299, read-out: IC50 ARN22089
Assay Readout: IC50 (µM)
Number in µM, nothing else.

State measured IC50 of the compound CN(C)c1cccc(Nc2cc(-c3ccccc3)nc(C3CCNCC3)n2)c1 [ARN22089] with KARPAS 299.
11

----------
- System: OVK18
- Assay: cells
- Particulars: OVK18, read-out: IC50 ARN22089
Assay Readout: pIC50
# pIC50 = -log10(concentration in molar units)

Quickly give me recorded pIC50 for CN(C)c1cccc(Nc2cc(-c3ccccc3)nc(C3CCNCC3)n2)c1 [ARN22089]
5.12

----------
- System: MV4-11
- Assay: cells
- Particulars: Homo sapiens, MV4-11, read-out: IC50 ARN22089
- Protocol: Cancer cell line viability assay was performed using a CellTiterGlo assay. Cells were cultured in their appropriate media and seeded in white multi-well plates. For the assays, cells were incubated with compound at 37°C overnight, and a CellTiterGlo assay was performed to quantify viable cells.
Assay Readout: IC50 (µM)
Number in µM, nothing else.

Quickly give me recorded IC50 for CN(C)c1cccc(Nc2cc(-c3ccccc3)nc(C3CCNCC3)n2)c1
4.4

----------
- Tested on: NCI-H441
- Assay: cells
- Particulars: Homo sapiens, NCI-H441, read-out: IC50 ARN22089
Assay Readout: pIC50
# pIC50 = -log10(concentration in molar units)

State measured pIC50 of the compound CN(C)c1cccc(Nc2cc(-c3ccccc3)nc(C3CCNCC3)n2)c1 with NCI-H441.
4.92

----------
- Assay: physchem
- Particulars: pH 7.4
Assay Readout: solubility kinetic at 24 h

Quickly give me recorded solubility kinetic at 24 h for CN(C)c1cccc(Nc2cc(-c3ccccc3)nc(C3CCNCC3)n2)c1
> 250 µM

----------
- Tested on: SK.BR-3
- Assay: cells
- Particulars: Homo sapiens, SK-BR-3, read-out: IC50 ARN22089
Assay Readout: IC50 (µM)
Number in µM, nothing else.

Quickly give me recorded IC50 for CN(C)c1cccc(Nc2cc(-c3ccccc3)nc(C3CCNCC3)n2)c1 [ARN22089]
6.7

----------
- Tested on: A498
- Assay: cells
- Particulars: Homo sapiens, A498, read-out: IC50 ARN22089
Assay Readout: IC50 (µM)
Number in µM, nothing else.

Quickly give me recorded IC50 for CN(C)c1cccc(Nc2cc(-c3ccccc3)nc(C3CCNCC3)n2)c1 [ARN22089]
10

----------
- Tested on: MCF-7
- Assay: cells
- Particulars: Homo sapiens, MCF7, read-out: IC50 ARN22089
Assay Readout: IC50 (µM)
Number in µM, nothing else.

Quickly give me recorded IC50 for CN(C)c1cccc(Nc2cc(-c3ccccc3)nc(C3CCNCC3)n2)c1 [ARN22089]
7.3
